Property: growth inhibition; scope: individual compounds
# assay info: NCI Yeast Anticancer Drug Screen. Data for the rad50 strain (AID 155);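 note: 0% = growth of vehicle-only cultures of the same strain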
# condition context: S. cerevisiae rad50 strain growth inhibition; at 50.0 µM (retest, dose inferred, filed as 5.0); hits give high values
Compounds without any hit were thinned out: in the full panel of roughly 79,000, 15% have a hit. Calls of active or inactive are those of the source. Cut-off read from the data, not from the text of the source: active = growth inhibition above about 70%; inactive = the rest.

Could you share which growth inhibition value was measured for CCc1ccc(NS(=O)(=O)c2ccccc2)c([N+](=O)[O-])c1 ? 39% (inactive)

Look up growth inhibition: CCC#CCCCOC(=O)c1cc([N+](=O)[O-])cc([N+](=O)[O-])c1 97% (active)

Entry COc1cc(C(=O)/C=C/c2ccccc2O)ccc1O : reported growth inhibition = ? 98% (active)

***
// growth inhibition lookup, key: COc1cccc2nc3ccccc3nc12 65% (inactive)

Could you share which growth inhibition value was measured for O=S(=O)(CCCl)c1ccccc1Cl ? 79% (active)

Could you share which growth inhibition value was measured for CC(=O)OC1CCC2(C)C(=CCC3C4CCC5(OC6CC(C)CN(C(C)=O)C6C5C)C(C)=C4C(=O)C32)C1 (stereo unspecified) ? 96% (active)

----------
# assay info: NCI Yeast Anticancer Drug Screen. Data for the cln2 rad14 strain (AID 165);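 note: 0% = growth equal to vehicle treated cultures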
# condition context: S. cerevisiae cln2 rad14 strain, at 5.0 µM (retest, dose inferred, filed as 0.5), hits give high values
This is part of a sample that, as a whole, favours compounds with a hit. Of some 79,000 tested, about 15% had one in any assay.
quantity kind: growth inhibition (%)
Give the value, in units of %, as a plain number.

Given O=C(N=Nc1cc(Cl)ccc1Cl)NNc1cc(Cl)ccc1Cl , state its recorded growth inhibition. 39

Item under review: CC(C)=CC(=O)O[C@@H]1CC(C)(C)CC2C3=CCC4[C@]56CC[C@](O)(OC5)C(C)(C)C6CC[C@@]4(C)C3(C)CC[C@]21C(=O)O (stereo partly specified) . Reported growth inhibition? 33

Continuing:
Name the recorded growth inhibition for CCC(C)COC(=O)c1ccc(N=Cc2ccc(C=Nc3ccc(C(=O)OCC(C)CC)cc3)cc2)cc1 (stereo unspecified) . 12

Reported growth inhibition, compound N#Cc1ccc(C2NN=CC23C(=O)c2ccccc2OC3c2ccccc2)cc1 (stereo unspecified) : ____ -16

Record request: growth inhibition value, item Cc1cccc2c(C(O)CBr)cc(-c3ccc(Cl)cc3)nc12 (stereo unspecified) -10

May I ask what growth inhibition has been recorded for O=C(c1cc(Br)ccc1O)c1cc(Br)ccc1O ? -3

What does the record list as growth inhibition for N#CC(C(=O)Nc1ccccc1)C1=C(Cl)C(=O)c2ccccc2C1=O (stereo unspecified) ? 53

Which growth inhibition is listed for CSc1nc(=S)[nH]c2c1c(C)nn2-c1ccccc1 ? 3

# query: growth inhibition of entry COc1ccc(O)c(/C=N\Nc2ccccc2)c1 -61

Find the recorded growth inhibition belonging to [N-]=[N+]=NC1=C(c2ccccn2)C(=O)c2cccc3cccc1c23 and report it. 38

Consider the compound Cc1cc(I)ccc1N and give its measured growth inhibition. 46

Entry under review: CC(C)NC(=O)OCc1c(COC(=O)NC(C)C)c(-c2ccc(Cl)c(Cl)c2)n2c1CCC2 . Reported growth inhibition? 23

growth inhibition for COc1cc(C2c3cc4c(cc3OC(NNc3ccccc3)C2C)OCO4)cc(OC)c1OC (stereo unspecified) ? 17

What value of measured growth inhibition is listed for Cc1ccc(S(=O)(=O)NC(=O)NC2=NC(C)(C)N(c3ccc(Cl)c(Cl)c3)C(N)=N2)cc1 ? 1

Report growth inhibition for Cc1ccc(CSC(N)=Nc2ccccc2)cc1C please. -16

----------
# assay info: NCI Yeast Anticancer Drug Screen. Data for the rad14 strain (AID 159);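 note: 0% = growth of vehicle-treated control cultures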
# condition context: S. cerevisiae rad14 strain growth inhibition; at 33.0 µM; hits give high values
The panel holds about 79,000 compounds, 15% with a hit somewhere; the sample as a whole holds those more often. The source made the active and inactive calls. Cut-off read from the data, not from the text of the source: active = growth inhibition above about 70%; inactive = the rest.
Listing of entries alongside the reported growth inhibition.

Known growth inhibition results, listed for orientation:
Need growth inhibition of CN(C)Cc1cc(N=Nc2ccc(Cl)cc2)cc(CN(C)C)c1O , thanks. 11% (inactive)

Given the entry CC(CC(C)(C)[N+](C)(C)C)[N+](C)(C)C (stereo not drawn) , report its measured growth inhibition. 3% (inactive)

Now look at this entry.
Bench note: what growth inhibition did C[CH2][Sn]([CH2]C)([O]C(=O)C(OC(C)=O)c1ccccc1)[O]C(=O)C(OC(C)=O)c1ccccc1 (stereo not drawn) show? 14% (inactive)

----------
# assay info: NCI Yeast Anticancer Drug Screen. Data for the mec2-1 strain (AID 157)
# condition context: S. cerevisiae mec2-1 strain, at 1.2 µM, hits give high values
# Description: Growth inhibition of yeast strains with defined genetic alterations is measured as a screen for potential anti-cancer activity. Selected strains with alterations in DNA damage repair or cell cycle control were exposed to compounds and growth inhibition was measured relative to vehicle treated controls. The strain used in this assay is mec2-1
This is part of a sample that, as a whole, favours compounds with a hit. Of some 79,000 tested, about 15% had one in any assay. Active and inactive are the calls of the source. Cut-off read from the data, not from the text of the source: active = growth inhibition above about 70%; inactive = the rest.
quantity kind: growth inhibition

Here is how some molecules turned out for growth inhibition.
Any idea what growth inhibition was measured for COC1=CC(=O)C2C(C1=O)C(c1ccc(Cl)cc1)[C@@H]2C (stereo partly specified) ? 34% (inactive)

Given the entry COc1cccc2nc3ccccc3nc12 , report its measured growth inhibition. -2% (inactive)

Given the molecule c1ccc(-c2ccnc3c2ccc2c(-c4ccccc4)ccnc23)cc1 , what is its reported growth inhibition? 22% (inactive)

Report growth inhibition for O=C1C=CC(=O)N1c1ccc2c(c1)Cc1cc(NC(=O)C(F)(F)F)ccc1-2 please. 13% (inactive)

Which value of growth inhibition has been reported for CC(=O)Oc1ccc2c(c1)Cc1cc(N=C3C=CC(=O)O3)ccc1-2 in the records? 15% (inactive)

***
Fill blank: measured growth inhibition of the molecule CN(CCc1ccccn1)c1ccc2c(c1)Cc1ccccc1-2 is ____. -1% (inactive)

----------
# assay info: NCI Yeast Anticancer Drug Screen. Data for the sgs1 strain (AID 173);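 note: 0% = growth of vehicle-only control cultures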
# condition context: S. cerevisiae sgs1 mutant, at 11.0 µM, hits give high values
About 79,000 compounds went through this panel and 15% of them were active in at least one assay; those are over-represented in the sample as a whole.
quantity kind: growth inhibition (%)
Give the quantity in %, number only.

Field request: growth inhibition | item: CCN(CC)C(=S)N/N=C(/C)c1cccc(/C(C)=N\NC(=S)N(CC)CC)n1 7

Dear colleague, I am looking for the recorded growth inhibition of the following compound: C[C@H](CCC(=O)NN)[C@H]1CC[C@H]2[C@@H]3CC[C@@H]4C[C@H](O)CC[C@]4(C)[C@H]3CC[C@]12C 4

// growth inhibition lookup, key: FC(F)(F)c1cc(NC(=S)N2c3ccccc3-n3cccc3C2c2cccnc2)cc(C(F)(F)F)c1 (stereo unspecified) -2

Entry under review: CN1c2ccc(Cl)cc2C(=O)NC1c1ccc([N+](=O)[O-])s1 (stereo unspecified) . Reported growth inhibition? 58

Please look up its growth inhibition: C#CCCCc1ccccc1 -56

Dear colleague, I am looking for the recorded growth inhibition of the following compound: CCCCCCCCCCCCCCC(C(=O)[O-])[n+]1ccccc1 (stereo unspecified) -2

----------
# assay info: NCI Yeast Anticancer Drug Screen. Data for the rad52 strain (AID 147);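 note: 0% = growth of vehicle-treated control cultures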
# condition context: S. cerevisiae rad52 mutant growth inhibition; at 33.0 µM
About 79,000 compounds went through this panel and 15% of them were active in at least one assay; those are over-represented in the sample as a whole. Active and inactive are the calls of the source. Cut-off read from the data, not from the text of the source: active = growth inhibition above about 70%; inactive = the rest.
Choose the fitting class; nothing outside active, inactive is accepted.

Which result was noted for this molecule in the test: CCCCCCCCCCCCCCC(C(=O)[O-])[n+]1ccccc1 (stereo unspecified) inactive

# outcome recorded in this test, key = O=CNc1ccc2c(c1)C(=O)c1ccccc1-2 active

Recorded test outcome, item CC1=C(SCCO)C(=O)c2ccccc2C1=O inactive

----------
# assay info: NCI Yeast Anticancer Drug Screen. Data for the rad50EPP+ strain (AID 151);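 note: 0% = growth of vehicle-treated control cultures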
# condition context: S. cerevisiae rad50 mutant strain, at 1.2 µM, hits give high values
The panel holds about 79,000 compounds, 15% with a hit somewhere; the sample as a whole holds those more often.
quantity kind: growth inhibition (%)
Number in %, nothing else.

Return reported growth inhibition; argument: BrCC[P+](c1ccccc1)(c1ccccc1)c1ccccc1 -44

Looking for the measured growth inhibition of CC1=C(SCCO)C(=O)c2ccccc2C1=O , can you help? -7

// query growth inhibition value for entry CCCS(=O)(=O)Nc1ccc(Nc2c3ccccc3nc3ccccc23)c(OC)c1 -32

Others:
What value of growth inhibition has been reported for the following compound? CCC(C(=O)O)C1=C(c2ccccc2)CCc2ccccc21 (stereo not given) 0

Report growth inhibition for C=CC(C)(O)CCC1C(=C)C(O)CC2C(C)(C)CCCC12C (stereo not given) please. 4

----------
# assay info: NCI Yeast Anticancer Drug Screen. Data for the wt1 strain (AID 149);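 note: 0% = growth of vehicle-treated wt1 cultures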
# condition context: S. cerevisiae wt1 strain (SPY 50644) growth inhibition; at 100.0 µM
About 79,000 compounds went through this panel and 15% of them were active in at least one assay; those are over-represented in the sample as a whole. Activity calls are given as the source filed them. Rule as the data show it: active = growth inhibition above about 70%; inactive = the rest.
Outcomes you can answer with include only these: true for active, false for inactive

Query: recorded result category for COc1ccc(-c2cn(-c3ccc(I)cc3)c3ncnc(N)c23)cc1 in this test false
